Target: KRas G12R (Homo sapiens, UniProt P01116, G12R)
Sequence (P01116 1-169 isoform P01116-2 G12R): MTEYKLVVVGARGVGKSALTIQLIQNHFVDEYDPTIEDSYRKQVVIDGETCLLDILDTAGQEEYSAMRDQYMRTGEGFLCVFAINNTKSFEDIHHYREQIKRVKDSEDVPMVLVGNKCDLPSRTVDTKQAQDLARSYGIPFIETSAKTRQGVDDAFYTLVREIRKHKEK
Experiment: biochemical
For each record, write down the corresponding pIC50.
Kindly note that pIC50 refers to -log10 of the concentration in mol/L and answer with the value alone.

Please respond with reported pIC50 (system KRas G12R (Homo sapiens, UniProt P01116, G12R)) for CCc1c(F)ccc2cc(O)cc(-c3ncc4c(N5C[C@@H]6C[C@H](C5)[C@H](O)C6)nc(OCC5(CN6CCCC6)CC5)nc4c3F)c12 [Example 320] .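 Note: TR-FRET displacement assay of compound binding to KRas, read after one hour at room temperature, potency from a four-parameter fit of percent-of-control values.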
8.52

Check KRas G12R (Homo sapiens, UniProt P01116, G12R) data and give pIC50 for NC(=O)C1CCCN(c2nc(OCC34CCCN3CCC4)nc3c(F)c(-c4cccc5cccc(F)c45)ncc23)C1 (stereo not drawn) [Example 86] .
5.07

Give the observed pIC50 of CCc1c(F)ccc2cc(O)cc(-c3ncc4c(N5CCC[C@@](C)(O)C5)nc(C(=O)NC(C)CN(C)C)nc4c3F)c12 (stereo partly drawn) [Example 312] for KRas G12R (Homo sapiens, UniProt P01116, G12R).
6.69

Tell me its pIC50 on KRas G12R (Homo sapiens, UniProt P01116, G12R): NC(=O)CCNc1nc(OCC23CCCN2CCC3)nc2c(F)c(-c3cccc4cccc(F)c34)ncc12 [Example 225]
5.03

* * *

Tested on: pERK in ASPC1 cells
Assay: Inhibition of KRas phosphorylation of ERK (Cisbio HTRF pERK assay)
Settings: Homo sapiens, ASPC1, read-out: Inhibition (HTRF IC50) of KRas-mediated Phosphorylation of ERK, AsPC-1
measured-quantity: pIC50
Formally, pIC50 is defined as -log10 of the concentration c, with c in mol/L.

Tell us which pIC50 value is on record for CCc1c(F)ccc2cc(O)cc(-c3ncc4c(N5CCOCC(C)(CO)C5)nc(OC[C@@]56CCCN5C[C@H](F)C6)nc4c3F)c12 (stereo partly drawn)
7.02

For the molecule CCc1c(F)ccc2cc(O)cc(-c3ncc4c(N5CCOCC6(C5)NC(=O)NC6=O)nc(OC[C@@]56CCCN5C[C@H](F)C6)nc4c3F)c12 (stereo partly drawn) , give its measured pIC50 value.
6.29

* * *

Task for the reader: assign each of the following compounds its reported pIC50.
Target: KRas G12S (Homo sapiens, UniProt P01116, G12S);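 note: TR-FRET displacement binding to KRas, read after one hour incubation at room temperature, IC50 from four-parameter fit of percent of control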
Sequence (P01116 1-169 isoform P01116-2 G12S): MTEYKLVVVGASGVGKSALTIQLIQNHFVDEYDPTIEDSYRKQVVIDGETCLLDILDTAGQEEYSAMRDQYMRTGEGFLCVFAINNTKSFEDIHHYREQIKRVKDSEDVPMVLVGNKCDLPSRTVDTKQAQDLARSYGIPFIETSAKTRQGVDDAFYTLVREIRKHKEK
Assay: biochemical
API: returns pIC50 as number; meaning -log10 of concentration in mol/L.

For the compound OC1CC2CC1CN(c1nc(OCC34CCCN3CCC4)nc3c(F)c(-c4cccc5cccc(F)c45)ncc13)C2 (stereo not shown) [Example 81] , give its reported pIC50.
6.27

Given NC(=O)C1CCCN(c2nc(OCC34CCCN3CCC4)nc3c(F)c(-c4cccc5cccc(F)c45)ncc23)C1 (stereo not shown) [Example 86] , respond with its pIC50.
5.62

# return recorded pIC50 for input Fc1c(-c2cccc3cccc(Cl)c23)ncc2c(N3CCCC3c3cn[nH]c3)nc(OCC34CCCN3CCC4)nc12 (stereo not shown) [Example 104]
5.70

* * *

Test system: pERK in ASPC1 cells
Assay: Inhibition of KRas phosphorylation of ERK (Cisbio HTRF pERK assay)
Conditions: Homo sapiens, ASPC1, read-out: Inhibition (HTRF IC50) of KRas-mediated Phosphorylation of ERK, AsPC-1
Would you mind telling me the reported pIC50 of each entry?
Interpret pIC50 as the negative base-10 log of the concentration measured in mol/L.

Consider the compound "CN(C)CC1(COc2nc(N3CCC[C@@](C)(O)C3)c3cnc(-c4cc(O)cc(Cl)c4C4CC4)c(F)c3n2)CC1" . State its measured pIC50.
6.69

Give pIC50 for "CCc1c(F)ccc2cc(O)cc(-c3ncc4c(NCc5cc(C(=O)N(C)C)nn5C)nc(OC[C@@]56CCCN5C[C@H](F)C6)nc4c3F)c12"
6.05

From: patent US12398154B2
